- Tested on: MCF7 breast
- ASSAY PROTOCOL: NCI-60 one-dose screen, 48 h (100 = growth as untreated, 0 = no growth, -100 = all killed)
- CONDITION NOTES: 10 µM
About 83,000 compounds went through this panel and 20% of them were active in at least one assay; those are over-represented in the sample as a whole.
Checkbox rule: growth lower than 30% = True; growth not lower than 30% = False.

CCCCC/C=C/C/C=C/CCCCCCCC1=NC(C)(C)CN1C(C)C = True
CN(C)CCCSc1ccccc1NC1=C(Cl)C(=O)C(Nc2ccccc2SCCCN(C)C)=C(Cl)C1=O = True
O=C1c2ccccc2C(=O)N1CCCCNc1ccccc1 = False
O=S(=O)(Oc1ccc(-c2ccc3sccc3c2)cc1)c1ccc(F)cc1 = False
Nc1cc(Br)c(-c2nn3c(CCC(=O)c4nc5ccccc5[nH]4)nnc3s2)c(Br)c1 = False

State whether 30% exceeds growth recorded for COc1cc(C2CC(c3ccccc3)=NN2C(C)=O)cc(OC)c1OC (stereo unspecified) .
True

State whether 30% exceeds growth recorded for "O=[N+]([O-])c1ccc2ncccc2c1Cl" .
True

State whether 30% exceeds growth recorded for "Cc1cc(Br)nnc1Br" .
False

State whether 30% exceeds growth recorded for CCCC1(CN2c3ccccc3Sc3ccc(Cl)cc32)CCN(CC)C1 (stereo unspecified) .
True

State whether 30% exceeds growth recorded for "O=c1c(Br)ccc(Br)cc1Br" .
True

----------
- Tested on: UACC-62 melanoma
- ASSAY PROTOCOL: NCI-60 one-dose screen, 48 h (100 = growth as untreated, 0 = no growth, -100 = all killed)
- CONDITION NOTES: 10 µM
Compounds without any hit were thinned out: in the full panel of roughly 83,000, 20% have a hit.
growth vs 50%: at or above is t, below is f.

Clc1nc2ccccc2cc1Cn1nnc(Cc2ccccc2)n1 = t
COc1ccc(-c2nc(-c3nc4ccc(C)cc4[nH]3)cc3c2[nH]c2ccccc23)cc1 = f
CC(C)c1cc(N=O)cc(C(C)C)c1O = t
CCCC1(CN2c3ccccc3Sc3ccc(Cl)cc32)CCN(CC)C1 (stereo not given) = f
CCOC(=O)c1cc(C(=O)c2cc(OC)c(OC)c(OC)c2)n2ncc3ccccc3c12 = t

Check if growth >= 50% (inclusive). Item: CCC1NC(=O)c2cc(S(N)(=O)=O)c(Cl)cc2N1 (stereo not given)
t

Check if growth >= 50% (inclusive). Item: "CCCCC/C=C/C/C=C/CCCCCCCC1=NC(C)(C)CN1C(C)C"
f

Check if growth >= 50% (inclusive). Item: "O=S(=O)(O)c1ccc(Cl)cc1"
t

Check if growth >= 50% (inclusive). Item: "Cc1nn(-c2ccc(-c3ccc(OC(F)(F)F)cc3)cc2)c2nc(Cc3ccccc3)nc(N)c12"
t

----------
- Tested on: PC-3 prostate
- ASSAY PROTOCOL: NCI-60 one-dose screen, 48 h
- CONDITION NOTES: 10 µM
The panel holds about 83,000 compounds, 20% with a hit somewhere; the sample as a whole holds those more often. The source made the active and inactive calls. The calls were made as follows: active = growth percent below 10; inactive = the rest.
Field 'call' accepts active, inactive

Which outcome did this test record for the compound COc1cc2c(cc1OC)C(C(CCCCCC(CCC(C)C)C1NCCc3cc(OC)c(OC)cc31)CCC(C)C)NCC2 (stereo not given) ?
active

Which outcome did this test record for the compound "CCN(CC)CCNc1ccc(C)c2sc3cc(Cl)ccc3c(=O)c12" ?
inactive

Which outcome did this test record for the compound "Cc1c(Cl)cccc1NC(=O)CCCl" ?
inactive

Which outcome did this test record for the compound Cc1ccc(C(SCC(N)C(=O)O)(c2ccc(C)cc2)c2ccc(C)cc2)cc1 (stereo not given) ?
inactive

Which outcome did this test record for the compound "CCCCC/C=C/C/C=C/CCCCCCCC1=NC(C)(C)CN1C(C)C" ?
inactive

Which outcome did this test record for the compound "CC(C)(C)c1ccc(S(=O)(=O)N[C@H]2CC[C@H]3[C@@H]4CCc5cc(O)ccc5[C@H]4CC[C@]23C)cc1" ?
inactive

Which outcome did this test record for the compound "CS(=O)(=O)c1nccc(-c2c(-c3cccc(OCc4ccccc4)c3)nc3sccn23)n1" ?
inactive

Which outcome did this test record for the compound "CCN(CC)CC(=O)N(CC)c1ccc(C)c(Cl)c1" ?
inactive

Which outcome did this test record for the compound "COc1ccc(CCN2CCC(Nc3nc4ccccc4n3Cc3ccc(F)cc3)CC2)cc1" ?
inactive

Which outcome did this test record for the compound "Nc1ccc(/C=N/Nc2ccnc3c(O)cccc23)c2cccnc12" ?
inactive

----------
- Test system: KM12 colon
- ASSAY PROTOCOL: NCI-60 one-dose screen, 48 h (100 = growth as untreated, 0 = no growth, -100 = all killed)
- CONDITION NOTES: 10 µM
Compounds without any hit were thinned out: in the full panel of roughly 83,000, 20% have a hit. Calls of active or inactive are those of the source. Rule for the calls: active = growth percent below 10; inactive = the rest.
QUANTITY: growth

Worked cases, answers included:
CN1CCN(CCCn2c(=O)c3sc4ncccc4c3n3nnc(-c4ccccc4)c23)CC1 = 16.4% (inactive)
CC1(C)N=C(N)N=C(N)N1c1cccc(C#N)c1 = 47.7% (inactive)
COc1cc2c3c(n([C@H]4CCOC4)c(=O)c2cc1OC)-c1cc2c(cc1C3=O)OCO2 = 57.1% (inactive)

Any idea what its growth is? The molecule is "Cc1c[nH]c(=O)n(Cc2nnc(CCC(=O)c3nc4ccccc4[nH]3)o2)c1=O"
4.98% (active)

Any idea what its growth is? The molecule is "CC(C)(C)OC(=O)N1CCc2c(sc3ncnc(N/N=C/c4cccc(Br)c4)c23)C1"
62.3% (inactive)

Any idea what its growth is? The molecule is C=C1CCC2(C#N)[C@H]3[C@H](CC[C@@H]2C)[C@@H](C)C[C@@H](CC(C)(C)NC(=O)CN2CCC2=O)[C@H]13 (stereo not given in full)
42.7% (inactive)

Any idea what its growth is? The molecule is "COc1cccc2ccc(CC(O)(c3ccccc3)c3ccccc3)nc12"
67.3% (inactive)

Any idea what its growth is? The molecule is COc1cc(C2CC(c3ccccc3)=NN2C(C)=O)cc(OC)c1OC (stereo not given)
18.4% (inactive)

Any idea what its growth is? The molecule is "O=C1/C(=C/c2ccc([N+](=O)[O-])s2)Oc2cc(Cl)ccc21"
-28.4% (active)

Any idea what its growth is? The molecule is "CC(=O)/C(=C/c1ccc(Br)cc1)C(=O)c1ccccc1"
58.6% (inactive)

----------
- System: OVCAR-5 ovarian
- ASSAY PROTOCOL: NCI-60 one-dose screen, 48 h (100 = growth as untreated, 0 = no growth, -100 = all killed)
- CONDITION NOTES: 10 µM
- Description: Growth inhibition of the OVCAR-5 human tumor cell line is measured as a screen for anti-cancer activity. Cells are grown in 96 well plates and exposed to the test compound for 48 hours. Compounds are tested at a single concentration, which is 10^-5 M for most compounds. The reported endpoint is percent growth (GI% or GIPRCNT), where numbers from 0 - 100% represent growth inhibition, and numbers from -100% - 0 represent cell death. For example, a value of 40 represents 60% growth inhibition. […]
This is part of a sample that, as a whole, favours compounds with a hit. Of some 83,000 tested, about 20% had one in any assay.
QUANTITY: growth (%)
State the answer as a number, implicitly in %.

CC[C@@H]1NC(=O)[C@H]([C@H](O)[C@H](C)C/C=C/c2ccc(CN3C(=O)CCCC3=O)cc2)N(C)C(=O)[C@H](C(C)C)N(C)C(=O)[C@H](CC(C)C)N(C)C(=O)[C@H](CC(C)C)N(C)C(=O)[C@@H](C)NC(=O)[C@H](C)NC(=O)[C@H](CC(C)C)N(C)C(=O)[C@H](C(C)C)NC(=O)[C@H](CC(C)C)N(C)C(=O)CN(C)C1=O = 83.8
CCn1c2ccc(O)cc2c2c(C)c3c[n+](C)ccc3c(C)c21 = 88.7
CCc1ccc(C2=NN(c3ccc(S(C)(=O)=O)cc3)C(=O)CC2)cc1 = 48.7
Cc1cc(Br)nnc1Br = 105
CCN(CC)CCOc1ccc2c(c1O)C(=O)c1ccccc1C2=O = 104
CS(=O)(=O)c1nccc(-c2c(-c3cccc(OCc4ccc(F)cc4)c3)nc3sccn23)n1 = 102

Any idea what its growth is? The molecule is "COc1cc(-c2ccc(N=Nc3ccc4c(S(=O)(=O)O)ccc(N)c4c3O)c(OC)c2)ccc1N=Nc1ccc2c(S(=O)(=O)O)ccc(N)c2c1O"
111

----------
- Tested on: MDA-MB-435 melanoma
- ASSAY PROTOCOL: NCI-60 one-dose screen, 48 h
- CONDITION NOTES: 10 µM
Compounds without any hit were thinned out: in the full panel of roughly 83,000, 20% have a hit. Calls of active or inactive are those of the source. The calls were made as follows: active = growth percent below 10; inactive = the rest.
Field 'call' accepts active, inactive

CN(C)CCCOc1ccccc1NC1=C(Cl)C(=O)C(Nc2ccccc2OCCCN(C)C)=C(Cl)C1=O = active

Which outcome did this test record for the molecule "CCN(CC)CCCOc1cccc2c1C(=O)c1cccc(OCCCN(CC)CC)c1C2=O" ?
inactive

Which outcome did this test record for the molecule "CC(C)C[C@H](NC(=O)Cn1cccc(CNC(=O)c2ccccc2)c1=O)B(O)O" ?
active

Values compiled from PubChem BioAssay (NCI).
